Biological target: Mu-type opioid receptor (Homo sapiens)
Sequence (P35372 whole entry): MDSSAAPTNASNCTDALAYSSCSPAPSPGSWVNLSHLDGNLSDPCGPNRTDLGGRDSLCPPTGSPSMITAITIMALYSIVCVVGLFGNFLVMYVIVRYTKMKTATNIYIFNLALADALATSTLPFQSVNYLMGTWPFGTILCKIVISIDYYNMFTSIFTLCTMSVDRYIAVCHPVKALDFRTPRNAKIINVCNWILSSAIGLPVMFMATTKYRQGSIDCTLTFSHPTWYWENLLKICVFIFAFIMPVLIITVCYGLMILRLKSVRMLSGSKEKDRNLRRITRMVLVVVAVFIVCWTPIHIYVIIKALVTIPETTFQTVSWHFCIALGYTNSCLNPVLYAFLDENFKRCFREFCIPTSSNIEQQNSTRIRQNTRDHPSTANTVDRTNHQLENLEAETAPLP
Test: Inhibition of [125I]Enkephalin binding to human mu opioid receptor from membranes of HEK293 cells
Assay type: cell membranes
pIC50: −log10 of the molar value.
parameter-measured: pIC50

O=c1c(-c2cccc(CO)c2)cccn1C(CN1CCC(O)C1)c1ccccc1 (stereo not given) : < 5.30
COc1ccc(C(CN2CCCC2)n2cccc(-c3ccc(C(F)(F)F)cc3)c2=O)cc1 (stereo not given) : < 5.00
Cc1ccc(C(C)Nc2cccn(C(CN3CCCC3)c3ccccc3)c2=O)cc1 (stereo not given) : < 5.00

So for CCN(CC)c1ccc(C(CN2CCCC2)n2cccc(-c3ccc(C(F)(F)F)cc3)c2=O)cc1 (stereo not given) , the logged pIC50 turned out to be < 5.00

So for O=c1c(-c2ccc(Cl)cc2Cl)cccn1C(CN1CCCC1)c1ccccc1 (stereo not given) , the logged pIC50 turned out to be 5.68

* * *

Biological target: Kappa-type opioid receptor (Homo sapiens)
Assay: Inhibition of [125I]-(D-Pro10)-Dynorphin A binding to human kappa opioid receptor from membranes of HEK293 cells
parameter-measured: pIC50
By convention, pIC50 is the negative base-10 log of a molar concentration.

The value of pIC50 recorded for O=c1c(-c2ccccc2)cccn1C(CN1CCC(O)C1)c1ccccc1 (stereo in doubt; 14f) when tested on Kappa-type opioid receptor (Homo sapiens) reads 6.33

The value of pIC50 recorded for Nc1cccc(-c2cccn(C(CN3CCC(O)C3)c3ccccc3)c2=O)c1 (stereo not given) when tested on Kappa-type opioid receptor (Homo sapiens) reads 7.60

The value of pIC50 recorded for COc1ccc(F)cc1-c1cccn(C(CN2CCC(O)C2)c2ccccc2)c1=O (stereo not given) when tested on Kappa-type opioid receptor (Homo sapiens) reads 8.26

The value of pIC50 recorded for O=c1c(-c2ccc(Cl)cc2Cl)cncn1C(CN1CCCC1)c1ccccc1 (stereo not given) when tested on Kappa-type opioid receptor (Homo sapiens) reads 7.39

The value of pIC50 recorded for CC(=O)c1ccc(-c2cccn(C(CN3CCC(O)C3)c3ccccc3)c2=O)cc1 (stereo not given) when tested on Kappa-type opioid receptor (Homo sapiens) reads 7.85

* * *

Target: Kappa-type opioid receptor (Homo sapiens, UniProt P41145)
Sequence (P41145 whole entry): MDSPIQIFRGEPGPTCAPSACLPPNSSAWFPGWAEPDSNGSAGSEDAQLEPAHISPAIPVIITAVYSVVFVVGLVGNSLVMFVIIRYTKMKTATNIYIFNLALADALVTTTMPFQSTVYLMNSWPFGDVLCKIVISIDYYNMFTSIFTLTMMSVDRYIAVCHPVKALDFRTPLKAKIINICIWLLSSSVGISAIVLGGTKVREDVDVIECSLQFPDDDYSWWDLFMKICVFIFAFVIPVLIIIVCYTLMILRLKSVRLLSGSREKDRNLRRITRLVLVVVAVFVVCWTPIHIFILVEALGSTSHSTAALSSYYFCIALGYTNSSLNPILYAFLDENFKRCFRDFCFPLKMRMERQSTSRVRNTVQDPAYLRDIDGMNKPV
Assay: Inhibition of [125I]-(D-Pro10)-Dynorphin A binding to human kappa opioid receptor from membranes of HEK293 cells
Catalogue of pIC50 readings, one per entry.
By convention, pIC50 is the negative base-10 log of a molar concentration.

O=C(O)COc1cccc(C(CN2CCCC2)n2cccc(-c3ccc(C(F)(F)F)cc3)c2=O)c1 (configuration not stated) : 6.38
O=c1c(-c2cccc(CO)c2)cccn1C(CN1CCC(O)C1)c1ccccc1 (configuration not stated) : 8.02
O=Cc1ccccc1-c1cccn(C(CN2CCC(O)C2)c2ccccc2)c1=O (configuration not stated) : 7.89
O=c1c(-c2ccccc2)cccn1C(CN1CCC(O)C1)c1ccccc1 (stereo in doubt; 20a) : 6.33

So for O=c1c(-c2ccccc2)ccnn1C(CN1CCCC1)c1ccccc1 (configuration not stated) , the logged pIC50 turned out to be 6.26

So for COc1ccccc1-c1cccn(C(CN2CCC(O)C2)c2ccccc2)c1=O (configuration not stated) , the logged pIC50 turned out to be 7.03

So for O=c1c(-c2ccc(C(F)(F)F)cc2)cccn1C(CN1CCOCC1)c1ccccc1 (configuration not stated) , the logged pIC50 turned out to be 6.15

So for COc1ccc(C(CN2CCCC2)n2cccc(-c3ccc(C(F)(F)F)cc3)c2=O)cc1 (configuration not stated) , the logged pIC50 turned out to be 6.49

So for COc1cccc(OC)c1-c1cccn(C(CN2CCC(O)C2)c2ccccc2)c1=O (configuration not stated) , the logged pIC50 turned out to be 8.01

So for Cc1cc(-c2cccn(C(CN3CCC(O)C3)c3ccccc3)c2=O)ccc1F (configuration not stated) , the logged pIC50 turned out to be 8.08

So for Cc1ccc(Nc2cccn(C(CN3CCCC3)c3ccccc3)c2=O)cc1 (configuration not stated) , the logged pIC50 turned out to be 7.03

So for O=c1c(Nc2ccc(C(F)(F)F)cc2)cccn1C(CN1CCCC1)c1ccccc1 (configuration not stated) , the logged pIC50 turned out to be 7.09
